- subject of test: Factor IXa (Homo sapiens (Human), UniProt P00740)
- Sequence (P00740 227-461): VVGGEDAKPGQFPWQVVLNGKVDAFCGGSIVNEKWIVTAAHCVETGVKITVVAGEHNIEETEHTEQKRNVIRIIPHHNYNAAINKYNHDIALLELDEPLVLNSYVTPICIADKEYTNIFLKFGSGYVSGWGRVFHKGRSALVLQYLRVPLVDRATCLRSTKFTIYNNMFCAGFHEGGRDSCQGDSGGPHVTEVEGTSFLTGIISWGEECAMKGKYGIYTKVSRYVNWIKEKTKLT
- Sequence (P00740 47-191 partner): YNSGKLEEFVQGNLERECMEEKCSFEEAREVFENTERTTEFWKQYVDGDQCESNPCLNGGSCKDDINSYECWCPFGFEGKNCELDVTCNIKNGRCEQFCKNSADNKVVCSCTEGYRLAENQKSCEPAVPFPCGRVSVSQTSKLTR
- procedure text: Determination of inhibitory activity against Factor IXa (cleavage of fluorescent peptide CH3SO2-D-CHG-Gly-Arg-AFC)
- Type: biochemical
- condition label: read-out: hFIXa IC50
- Protocol: Determination of Inhibitory Activity Against Factor IXa Formation of a clot to stem bleeding at a site of blood vessel injury involves the coordinated activity of a group of plasma proteins that initiate and propagate fibrin formation and subsequently protect fibrin from premature degradation. […] The activity of Factor IXa is measured by monitoring the cleavage of the fluorescent peptide, CH3SO2-D-CHG-Gly-Arg-AFC.AcOH (“CHG” is cyclohexyl-glycine and “AFC” is trifluoro aminomethyl coumarin). […]
Doc: threshold 10 nM (exclusive). Items with IC50 beneath it return Fulfilled; others return Not fulfilled.

Challenge: # TODO verify IC50 < 10 nM strictly for this compound: "CCOC(=O)c1cccc([C@H](CNC(=O)c2c(Cl)cc(-n3cnc(C)n3)cc2Cl)c2nc3cc(OC)c(Cl)cc3[nH]2)c1"
Response given: Not fulfilled

Challenge: Hello, is IC50 of the following compound strictly smaller than 10 nM? Cc1cc2nc(C(CNC(=O)c3c(Cl)cc(-c4cncc(CO)c4)cc3Cl)c3ccccc3)[nH]c2cc1C (stereo not drawn)
Response given: Not fulfilled

Challenge: IC50 under 10 nM? Item: CCOC(=O)c1cc(-c2cc(Cl)c(C(=O)NCC(c3ccccc3)c3nc4cc(C)c(C)cc4[nH]3)c(Cl)c2)ccn1 (stereo not drawn)
Response given: Not fulfilled

Challenge: Consider Cc1cc2nc(C(CNC(=O)c3c(Cl)cc(-n4cnnc4)cc3C(F)(F)F)c3ccccc3)[nH]c2cc1C (stereo not drawn) . Does its IC50 lie strictly below 10 nM?
Response given: Not fulfilled

Challenge: Here's an entry: Cc1cc2nc(C(CNC(=O)c3c(Cl)cc(-c4cnn(CCO)c4)cc3Cl)c3ccccc3)[nH]c2cc1C (stereo not drawn) . Is its IC50 below 10 nM?
Response given: Not fulfilled

Challenge: hey, is IC50 for Cc1cc2nc(C(CNC(=O)c3ccc(-n4cnnc4)cc3Cl)c3cccc(F)c3)[nH]c2cc1C (stereo not drawn) lower than 10 nM or not?
Response given: Fulfilled

Challenge: Is the reported IC50 for "Cc1ccc(F)c2nc([C@@H](CNC(=O)c3ccc(-n4cnnc4C(F)F)cc3Cl)c3cccc(F)c3)[nH]c(=O)c12" strictly below 10 nM?
Response given: Fulfilled

Challenge: Take the compound Cc1cc2nc(C(CNC(=O)c3ccc(-n4cnnc4)cc3Cl)c3ccccc3F)[nH]c2cc1C (stereo not drawn) and say whether its IC50 is less than 10 nM.
Response given: Not fulfilled

Challenge: is_below(IC50, 10 nM) for "Cc1ncn(-c2ccc(C(=O)NC[C@@H](c3ccccc3)c3nc4c(F)ccc(C)c4c(=O)[nH]3)c(Cl)c2)n1" ?
Response given: Not fulfilled

Challenge: IC50 under 10 nM? Item: O=C(O)c1ccc2ncn(-c3ccc(C(=O)NCC(c4cccc(F)c4)c4nc5c(F)ccc(Cl)c5c(=O)[nH]4)c(Cl)c3)c2c1 (stereo not drawn)
Response given: Fulfilled

Challenge: Lab log: compare recorded IC50 with 10 nM; is it strictly lower for "Cc1ccc(F)c2nc([C@@H](CNC(=O)c3ccc(-c4ccc(=O)n(C)c4)cc3Cl)c3cccc(F)c3)[nH]c(=O)c12" ?
Response given: Fulfilled

Challenge: State whether 10 nM exceeds IC50 recorded for Cc1cc2nc(C(CNC(=O)c3c(Cl)cc(-c4ccc5nncn5c4)cc3Cl)c3ccccc3)[nH]c2cc1C (stereo not drawn) .
Response given: Not fulfilled

Challenge: Hello, is IC50 of the following compound strictly smaller than 10 nM? "Cc1ncn(-c2ccc(C(=O)NC[C@@H](c3cccc(F)c3)c3nc4c(F)ccc(C)c4c(=O)[nH]3)c(Cl)c2)n1"
Response given: Fulfilled

Challenge: Strictly below 10 nM in IC50? "Cc1ncn(-c2cc(Cl)c(C(=O)NC[C@@H](c3cccc(F)c3)c3ccc4c(C)ccc(F)c4n3)c(Cl)c2)n1"
Response given: Not fulfilled

Challenge: Field: below-cutoff. Rule: recorded IC50 strictly less than 10 nM. Subject: "COc1cc2nc([C@@H](CNC(=O)c3c(Cl)cc(-n4cnc(C)n4)cc3Cl)c3ccc(C(N)=O)cc3)[nH]c2cc1Cl"
Response given: Fulfilled
